Target: Peptide 1593 (…) (Mycobacterium tuberculosis)
Assay: ELISA, NNK clone supernatant on coated peptide (22 hits)
Could you please report measured OD450 nm for the items listed next?
Answer with a number only, understood to be in OD450.

## Input # OD450 nm lookup, item 65D3 chimeric Fab, NNK library L18 mutant L to N (VL L55N) (Fab, V domains shown) VH: QSLEESGGRLVTPGGSLTLTCTVSGFSLSTHDISWVRQAPGKGLEWIGVIARRGSTYYASWAKGRFTISKTSTTVDLKITSPTIEDTATYFCAREEFDFWGQGTLVTVSS VL: AVLTQTASPVSAAVGGTVTISCQSSQSVYNNKELSWFQQKPGQPPKLLISYASTNASGVPSRFKGSGSGTQFTLTISDLECDDAATYYCLGGYASTIDMWAFGGGTEVVVK
## Output 0.937

## Input Item: 65D3 chimeric Fab, NNK library L8 mutant N to H (VL N30H) (Fab, V domains shown) VH: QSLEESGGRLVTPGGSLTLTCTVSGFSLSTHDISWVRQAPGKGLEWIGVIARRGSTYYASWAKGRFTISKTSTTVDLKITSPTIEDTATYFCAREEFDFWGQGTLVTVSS VL: AVLTQTASPVSAAVGGTVTISCQSSQSVYHNKELSWFQQKPGQPPKLLISYASTLASGVPSRFKGSGSGTQFTLTISDLECDDAATYYCLGGYASTIDMWAFGGGTEVVVK
## Output 0.957
